- Method Notes: self-splicing fitness, log relative to wild type (ln ratio); higher = more splicing; Tetrahymena group I intron in knt gene, E. coli kanamycin selection, DiMSum; sequences stand for … in CUCUCU…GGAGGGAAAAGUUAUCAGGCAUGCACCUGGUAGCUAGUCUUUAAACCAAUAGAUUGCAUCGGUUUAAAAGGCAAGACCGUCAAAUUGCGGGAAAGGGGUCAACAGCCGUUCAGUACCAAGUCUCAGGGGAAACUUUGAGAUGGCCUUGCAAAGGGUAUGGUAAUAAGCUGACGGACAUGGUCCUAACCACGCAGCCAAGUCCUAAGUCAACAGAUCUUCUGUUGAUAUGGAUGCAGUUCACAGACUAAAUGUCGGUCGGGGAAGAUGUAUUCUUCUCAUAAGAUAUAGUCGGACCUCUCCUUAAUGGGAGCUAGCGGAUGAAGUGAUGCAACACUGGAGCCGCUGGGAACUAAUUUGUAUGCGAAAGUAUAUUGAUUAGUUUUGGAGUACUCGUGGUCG;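 also: selection with 25 µg/mL kanamycin versus none on LB agar overnight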
- Experimental Context: 37 °C

>  <Sequence String>
UUGAAGCAAUAUUACGCAGU

>  <self-splicing fitness (ln)>
-1.54

$$$$
>  <Sequence String>
UGUCAGCAAUAUUACGGUCU

>  <self-splicing fitness (ln)>
0.201

$$$$
>  <Sequence String>
GCGGAGCAAUAUUACGUCCA

>  <self-splicing fitness (ln)>
-0.822

$$$$
>  <Sequence String>
GACAAGCAAUAUUACGUAAU

>  <self-splicing fitness (ln)>
-1.16

$$$$
>  <Sequence String>
GAAUAGCAAUAUUACGCGUC

>  <self-splicing fitness (ln)>
0.15

$$$$
>  <Sequence String>
GUUGAGCAAUAUUACGAUCC

>  <self-splicing fitness (ln)>
0.0175

$$$$
>  <Sequence String>
AUGAAGCAAUAUUACGGGGA

>  <self-splicing fitness (ln)>
-1.31

$$$$
>  <Sequence String>
CAUAAGCAAUAUUACGGUGG

>  <self-splicing fitness (ln)>
-0.683

$$$$
>  <Sequence String>
GUAAAGCAAUAUUACGGGCC

>  <self-splicing fitness (ln)>
-1.05

$$$$
>  <Sequence String>
AGCGAGCAAUAUUACGCCAA

>  <self-splicing fitness (ln)>
-1.56

$$$$
>  <Sequence String>
CCCUAGCAAUAUUACGUGCU

>  <self-splicing fitness (ln)>
-2.58

$$$$
>  <Sequence String>
GGUCAGCAAUAUUACGGGGG

>  <self-splicing fitness (ln)>
-2.15

$$$$
>  <Sequence String>
AUAAAGCAAUAUUACGAUGC

>  <self-splicing fitness (ln)>
-0.56

$$$$
>  <Sequence String>
UGCAAGCAAUAUUACGAAAC

>  <self-splicing fitness (ln)>
-2.65

$$$$
>  <Sequence String>
UUGAAGCAAUAUUACGAGGG

>  <self-splicing fitness (ln)>
-1.37

$$$$
>  <Sequence String>
UUUGAGCAAUAUUACGUGAA

>  <self-splicing fitness (ln)>
-1.82

$$$$

###

Recorded self-splicing fitness (ln) for the following sequences
- Method Notes: self-splicing fitness, log relative to wild type (ln ratio); higher = more splicing; Tetrahymena group I intron in knt gene, E. coli kanamycin selection, DiMSum; sequences stand for … in CUCUCU…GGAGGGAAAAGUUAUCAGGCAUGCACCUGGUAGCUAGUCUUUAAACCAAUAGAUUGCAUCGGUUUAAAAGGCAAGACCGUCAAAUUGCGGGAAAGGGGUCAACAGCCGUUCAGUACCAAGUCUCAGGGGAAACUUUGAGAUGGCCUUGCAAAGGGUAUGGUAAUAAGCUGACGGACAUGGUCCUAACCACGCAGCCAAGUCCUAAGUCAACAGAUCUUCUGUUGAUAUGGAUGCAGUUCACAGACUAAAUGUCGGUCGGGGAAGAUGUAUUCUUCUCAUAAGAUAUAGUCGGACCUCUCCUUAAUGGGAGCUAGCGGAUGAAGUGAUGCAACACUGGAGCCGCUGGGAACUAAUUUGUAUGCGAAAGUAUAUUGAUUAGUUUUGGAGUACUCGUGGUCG
- Experimental Context: 30 °C

>  <Sequence String>
AGUUAGCAAUAUUACGGCAG

>  <self-splicing fitness (ln)>
-0.102

$$$$
>  <Sequence String>
UCUUAGCAAUAUUACGUAUU

>  <self-splicing fitness (ln)>
-3.1

$$$$
>  <Sequence String>
GCAAAGCAAUAUUACGGUCU

>  <self-splicing fitness (ln)>
-1.38

$$$$
>  <Sequence String>
UUGAAGCAAUAUUACGUGAC

>  <self-splicing fitness (ln)>
-3.1

$$$$
>  <Sequence String>
AGCUAGCAAUAUUACGAGCG

>  <self-splicing fitness (ln)>
-0.417

$$$$
>  <Sequence String>
GAGAAGCAAUAUUACGCGGG

>  <self-splicing fitness (ln)>
-2.86

$$$$
>  <Sequence String>
CGGUAGCAAUAUUACGAUAG

>  <self-splicing fitness (ln)>
-0.323

$$$$
>  <Sequence String>
GCUUAGCAAUAUUACGAGGU

>  <self-splicing fitness (ln)>
-4.11

$$$$
>  <Sequence String>
UAAUAGCAAUAUUACGCGUG

>  <self-splicing fitness (ln)>
-1.37

$$$$
>  <Sequence String>
ACAUAGCAAUAUUACGUGAU

>  <self-splicing fitness (ln)>
-1.7

$$$$
>  <Sequence String>
ACUAAGCAAUAUUACGAUGC

>  <self-splicing fitness (ln)>
-1.53

$$$$
>  <Sequence String>
ACUUAGCAAUAUUACGUGUG

>  <self-splicing fitness (ln)>
-2.2

$$$$
>  <Sequence String>
AACGAGCAAUAUUACGCUAA

>  <self-splicing fitness (ln)>
-3.19

$$$$
>  <Sequence String>
AUUUAGCAAUAUUACGGAUA

>  <self-splicing fitness (ln)>
-2.18

$$$$
>  <Sequence String>
AACUAGCAAUAUUACGGCCA

>  <self-splicing fitness (ln)>
-0.0639

$$$$
>  <Sequence String>
UAGCAGCAAUAUUACGCGAA

>  <self-splicing fitness (ln)>
-1.54

$$$$
